Tested on: TK-10 renal
Test: NCI-60 one-dose screen, 48 h
Recorded Conditions: 10 µM unless noted
Compounds without any hit were thinned out: in the full panel of roughly 83,000, 20% have a hit. Activity calls are given as the source filed them. Rule for the calls: active = growth percent below 10; inactive = the rest.
Respond with a class label; see true (active), false (inactive)

Request: # fetch the recorded call for CCOC(=O)c1cc(C(=O)c2cc(OC)c(OC)c(OC)c2)n2ccc(-c3ccncc3)cc12 here
Response: false

Request: # fetch the recorded call for CCCc1cc(NC)nc(S(=O)(=O)CC)n1 here
Response: false

Request: # fetch the recorded call for CNC(=O)c1c(NC(=O)c2ccc(C(F)(F)F)cc2)sc2c1CCC(=O)C2 here
Response: false

Request: # fetch the recorded call for Cc1cccc2c1NC(=O)C2(c1ccc(O)cc1)c1ccc(O)cc1 here
Response: false

Request: # fetch the recorded call for CCCCCOc1ccc(C(=O)/C(Br)=C/C(=O)O)cc1 here
Response: false

Request: # fetch the recorded call for Cn1cc(-c2csc(-c3ccc(Cl)cc3)n2)c2cccnc21 here
Response: true
